- System: Plasmodium berghei
- measurementNotes: Screen against P. berghei liver stage (PbLuc), transformed with Luciferase, at 10uM
- Type: functional, HepG2
- conditionSet: tested at 10 uM
Screen size: about 69,000 compounds; about 8,600 (12%) showed an effect of 50% or more. The full list was thinned out, with strong results kept by preference.
Here, each record is paired with measured INHIBITION data.
Give the number; % is assumed, so skip it.

{"molecule": "COc1ccccc1CN1C[C@@H](F)[C@@H](OCc2nc3ncccc3[nH]2)C1", "assayResult": 50.7}
{"molecule": "CN(CCCOc1ccccc1Cl)C(=O)CN1C[C@H]2CC[C@@H](CC1=O)N2", "assayResult": 17}
{"molecule": "CCSc1nsc(NC(=O)COc2ccc3c(c2)OCO3)n1", "assayResult": 49.4}
{"molecule": "CCc1nccn1C1CCCN(C(=O)c2ccc3[nH]cnc3c2)C1 (centres undefined)", "assayResult": 3.16}
{"molecule": "O=C(CN1CCCC(c2noc(C3CC3)n2)C1)N1CCCC1 (centres undefined)", "assayResult": 15.6}
{"molecule": "CC1c2ncc(CN3CCN(C)CC3)n2CCN1CC1CC1 (centres undefined)", "assayResult": -10.4}
{"molecule": "COCc1nc(C2CCN(Cc3nccn3C)CC2)no1", "assayResult": -11.7}
{"molecule": "COCC(=O)N1CCn2c(Cn3cncn3)cnc2C1C (centres undefined)", "assayResult": 36.2}

For the next question, use this molecule.
Give recorded INHIBITION with Plasmodium berghei for the following molecule: N#Cc1cccc(C(=O)NC2CCc3c(ccc(=O)n3CC3CC3)C2)c1 (centres undefined)
-19.2
